Give kcat/KM for every item shown.
- Measured Target: Factor X (FX), P00742
- Sequence (P00742 whole entry, looked up): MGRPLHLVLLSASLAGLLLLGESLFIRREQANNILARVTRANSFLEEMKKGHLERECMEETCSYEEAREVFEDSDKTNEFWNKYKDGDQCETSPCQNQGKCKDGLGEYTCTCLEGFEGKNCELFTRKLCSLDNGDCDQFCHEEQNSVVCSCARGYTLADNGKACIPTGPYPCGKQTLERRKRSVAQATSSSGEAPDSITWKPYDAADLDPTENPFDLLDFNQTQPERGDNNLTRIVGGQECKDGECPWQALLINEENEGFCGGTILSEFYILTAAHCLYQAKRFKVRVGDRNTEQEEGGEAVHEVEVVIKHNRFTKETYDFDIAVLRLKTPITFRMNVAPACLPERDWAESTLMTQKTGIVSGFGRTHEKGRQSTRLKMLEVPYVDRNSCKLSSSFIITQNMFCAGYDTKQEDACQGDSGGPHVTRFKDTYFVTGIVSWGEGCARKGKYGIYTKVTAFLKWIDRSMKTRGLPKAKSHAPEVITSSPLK
Kindly answer with a numeric value in M⁻¹ s⁻¹, unit omitted.

Query string: Query kcat/KM for FIXa variant R318Y/R338E/E410N (protein) chain 1: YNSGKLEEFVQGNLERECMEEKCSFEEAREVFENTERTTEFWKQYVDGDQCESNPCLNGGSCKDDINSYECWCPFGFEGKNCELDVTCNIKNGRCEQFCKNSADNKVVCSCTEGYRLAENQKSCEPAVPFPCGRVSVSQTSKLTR chain 2: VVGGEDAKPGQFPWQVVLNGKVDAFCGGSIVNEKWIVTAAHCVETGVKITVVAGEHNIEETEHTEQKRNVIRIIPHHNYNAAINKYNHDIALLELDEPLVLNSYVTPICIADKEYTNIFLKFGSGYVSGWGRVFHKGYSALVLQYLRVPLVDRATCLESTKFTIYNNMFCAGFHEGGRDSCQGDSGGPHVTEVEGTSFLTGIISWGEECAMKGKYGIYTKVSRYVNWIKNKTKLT
Result string: 3.4e+08

Query string: Query kcat/KM for FIXa-Y155F/K247N/N249S/R318Y/R338E/R403E/E410N (protein) chain 1: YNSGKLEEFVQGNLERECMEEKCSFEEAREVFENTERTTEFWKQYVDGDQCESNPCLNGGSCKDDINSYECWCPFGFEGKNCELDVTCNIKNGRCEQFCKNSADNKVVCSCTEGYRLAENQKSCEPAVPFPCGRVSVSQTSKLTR chain 2: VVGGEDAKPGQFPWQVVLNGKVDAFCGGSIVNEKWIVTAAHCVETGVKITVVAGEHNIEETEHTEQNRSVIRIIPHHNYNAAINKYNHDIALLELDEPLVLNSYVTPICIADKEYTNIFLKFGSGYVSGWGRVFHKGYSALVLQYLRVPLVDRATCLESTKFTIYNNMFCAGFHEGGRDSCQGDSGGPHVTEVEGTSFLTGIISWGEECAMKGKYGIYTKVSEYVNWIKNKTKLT
Result string: 1.9e+08

Query string: Query kcat/KM for FIXa variant D203N/F205T/E410N (protein) chain 1: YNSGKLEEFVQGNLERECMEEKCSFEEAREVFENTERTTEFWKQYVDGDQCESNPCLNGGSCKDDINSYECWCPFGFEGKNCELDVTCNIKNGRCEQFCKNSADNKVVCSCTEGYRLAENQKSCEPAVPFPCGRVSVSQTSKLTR chain 2: VVGGEDAKPGQFPWQVVLNGKVNATCGGSIVNEKWIVTAAHCVETGVKITVVAGEHNIEETEHTEQKRNVIRIIPHHNYNAAINKYNHDIALLELDEPLVLNSYVTPICIADKEYTNIFLKFGSGYVSGWGRVFHKGRSALVLQYLRVPLVDRATCLRSTKFTIYNNMFCAGFHEGGRDSCQGDSGGPHVTEVEGTSFLTGIISWGEECAMKGKYGIYTKVSRYVNWIKNKTKLT
Result string: 4.2e+07

Query string: Query kcat/KM for FIXa variant R318Y/R338E/R403E/E410N (protein) chain 1: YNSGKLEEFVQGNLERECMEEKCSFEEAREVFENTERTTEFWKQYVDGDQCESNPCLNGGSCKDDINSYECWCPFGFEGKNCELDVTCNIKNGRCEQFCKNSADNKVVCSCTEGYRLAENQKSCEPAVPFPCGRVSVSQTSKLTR chain 2: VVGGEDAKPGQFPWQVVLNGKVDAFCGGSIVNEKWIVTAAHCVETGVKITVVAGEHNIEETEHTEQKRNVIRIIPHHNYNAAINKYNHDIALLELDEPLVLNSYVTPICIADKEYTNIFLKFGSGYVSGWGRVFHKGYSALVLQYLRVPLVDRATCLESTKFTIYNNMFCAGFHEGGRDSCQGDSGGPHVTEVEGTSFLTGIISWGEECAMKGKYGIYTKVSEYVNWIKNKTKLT
Result string: 1.5e+08

Query string: Query kcat/KM for FIXa variant K228N/R338E/R403E (protein) chain 1: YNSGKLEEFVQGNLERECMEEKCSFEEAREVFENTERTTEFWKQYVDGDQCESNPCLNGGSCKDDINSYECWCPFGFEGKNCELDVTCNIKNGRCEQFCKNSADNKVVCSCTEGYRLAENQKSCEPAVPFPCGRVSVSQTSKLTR chain 2: VVGGEDAKPGQFPWQVVLNGKVDAFCGGSIVNEKWIVTAAHCVETGVNITVVAGEHNIEETEHTEQKRNVIRIIPHHNYNAAINKYNHDIALLELDEPLVLNSYVTPICIADKEYTNIFLKFGSGYVSGWGRVFHKGRSALVLQYLRVPLVDRATCLESTKFTIYNNMFCAGFHEGGRDSCQGDSGGPHVTEVEGTSFLTGIISWGEECAMKGKYGIYTKVSEYVNWIKEKTKLT
Result string: 4.8e+07

Query string: Query kcat/KM for FIXa-D104N/K106S/K247N/N249S/R318Y/R338E/R403E/E410N (protein) chain 1: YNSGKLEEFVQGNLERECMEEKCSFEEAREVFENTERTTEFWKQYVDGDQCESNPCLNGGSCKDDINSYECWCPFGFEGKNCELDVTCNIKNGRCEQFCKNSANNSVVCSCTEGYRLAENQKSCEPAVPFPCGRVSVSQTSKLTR chain 2: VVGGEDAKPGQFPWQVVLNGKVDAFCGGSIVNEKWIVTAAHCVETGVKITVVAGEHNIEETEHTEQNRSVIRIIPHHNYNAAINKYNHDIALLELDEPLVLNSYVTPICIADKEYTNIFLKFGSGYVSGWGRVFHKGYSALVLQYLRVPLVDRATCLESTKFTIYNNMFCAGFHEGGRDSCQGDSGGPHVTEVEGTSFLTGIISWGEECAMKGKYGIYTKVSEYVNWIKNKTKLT
Result string: 8.8e+07

Query string: Query kcat/KM for FIXa-D203N/F205T/R338E/R403E (protein) chain 1: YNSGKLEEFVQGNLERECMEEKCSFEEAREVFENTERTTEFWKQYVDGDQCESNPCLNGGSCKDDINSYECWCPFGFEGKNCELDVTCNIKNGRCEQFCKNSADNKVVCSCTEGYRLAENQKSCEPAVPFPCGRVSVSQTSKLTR chain 2: VVGGEDAKPGQFPWQVVLNGKVNATCGGSIVNEKWIVTAAHCVETGVKITVVAGEHNIEETEHTEQKRNVIRIIPHHNYNAAINKYNHDIALLELDEPLVLNSYVTPICIADKEYTNIFLKFGSGYVSGWGRVFHKGRSALVLQYLRVPLVDRATCLESTKFTIYNNMFCAGFHEGGRDSCQGDSGGPHVTEVEGTSFLTGIISWGEECAMKGKYGIYTKVSEYVNWIKEKTKLT
Result string: 1.9e+07
